testDetails: Concentration in autopsy samples of cerebral cortex of deceased patients, HPLC-UV
Assay type: in vivo, human
setupConditions: human, cerebral cortex, intravenous, 1800 mg; patient 13, cumulative dose 1,800 mg, treatment 18 days, 111 h between last administration and death, 38 h between death and sampling, LLOQ 0.10 μg/g; read-out: Concn in cerebral cortex (autopsy)
Starred links: 1 amine or outer side, 2 acyl side, 3 side chain; linkers in the order of their positions; H or OH if unused. Positions of bridges follow the written chain, without caps; N, C: chain ends. Non-standard residues stand in square brackets, D forms with d. Residues, ends and D or L forms follow the SMILES beside them. *: point of attachment. hTyr(3S-OH,4S-OH,3'-OSO3H) = N[C@H](C(=O)O)[C@H](O)[C@@H](O)c1ccc(O)c(OS(=O)(=O)O)c1; Orn(4R-OH,5R-OH) = O=C([C@H](C[C@@H](O)[C@@H](O)N[*:3])N[*:1])[*:2]; Pro(3S-OH,4S-Me) = C[C@H]1CN[C@H](C(=O)O)[C@H]1O; X1 = CCCCCOc1ccc(-c2cc(-c3ccc(C(=O)*)cc3)no2)cc1; Gln(3R-OH) = NC(=O)C[C@@H](O)[C@H](N)C(=O)O; Hyp = O=C(O)[C@@H]1C[C@@H](O)CN1
testReadout: tissue level at time at 111 h (ng/g)

# molecule, assayResult
records = [
    ("CCCCCOc1ccc(-c2cc(-c3ccc(C(=O)N[C@H]4C[C@@H](O)[C@@H](O)NC(=O)[C@@H]5[C@@H](O)[C@@H](C)CN5C(=O)[C@H]([C@H](O)CC(N)=O)NC(=O)[C@H]([C@H](O)[C@@H](O)c5ccc(O)c(OS(=O)(=O)O)c5)NC(=O)[C@@H]5C[C@@H](O)CN5C(=O)[C@H]([C@@H](C)O)NC4=O)cc3)no2)cc1 [micafungin] (X1-[Orn(4R-OH,5R-OH)]T[Hyp][hTyr(3S-OH,4S-OH,3'-OSO3H)][Gln(3R-OH)][Pro(3S-OH,4S-Me)]; lactam 1-C)", 180),
]

###

testDetails: clinical
setupConditions: human, in vivo, iv, 200 mg
Starred links: 1 amine or outer side, 2 acyl side, 3 side chain; linkers in the order of their positions; H or OH if unused. Positions of bridges follow the written chain, without caps; N, C: chain ends. Non-standard residues stand in square brackets, D forms with d. Residues, ends and D or L forms follow the SMILES beside them. *: point of attachment. hTyr(3S-OH,4S-OH,3'-OSO3H) = N[C@H](C(=O)O)[C@H](O)[C@@H](O)c1ccc(O)c(OS(=O)(=O)O)c1; Orn(4R-OH,5R-OH) = O=C([C@H](C[C@@H](O)[C@@H](O)N[*:3])N[*:1])[*:2]; Pro(3S-OH,4S-Me) = C[C@H]1CN[C@H](C(=O)O)[C@H]1O; X1 = CCCCCOc1ccc(-c2cc(-c3ccc(C(=O)*)cc3)no2)cc1; Gln(3R-OH) = NC(=O)C[C@@H](O)[C@H](N)C(=O)O; Hyp = O=C(O)[C@@H]1C[C@@H](O)CN1

# compound, level at 16 h (ng/mL)
data = [
    ("CCCCCOc1ccc(-c2cc(-c3ccc(C(=O)N[C@H]4C[C@@H](O)[C@@H](O)NC(=O)[C@@H]5[C@@H](O)[C@@H](C)CN5C(=O)[C@H]([C@H](O)CC(N)=O)NC(=O)[C@H]([C@H](O)[C@@H](O)c5ccc(O)c(OS(=O)(=O)O)c5)NC(=O)[C@@H]5C[C@@H](O)CN5C(=O)[C@H]([C@@H](C)O)NC4=O)cc3)no2)cc1 [micafungin] (X1-[Orn(4R-OH,5R-OH)]T[Hyp][hTyr(3S-OH,4S-OH,3'-OSO3H)][Gln(3R-OH)][Pro(3S-OH,4S-Me)]; lactam 1-C)", 90),
]

###

testDetails: clinical
setupConditions: human, in vivo, iv, 1300 mg
Starred links: 1 amine or outer side, 2 acyl side, 3 side chain; linkers in the order of their positions; H or OH if unused. Positions of bridges follow the written chain, without caps; N, C: chain ends. Non-standard residues stand in square brackets, D forms with d. Residues, ends and D or L forms follow the SMILES beside them. *: point of attachment. hTyr(3S-OH,4S-OH,3'-OSO3H) = N[C@H](C(=O)O)[C@H](O)[C@@H](O)c1ccc(O)c(OS(=O)(=O)O)c1; Orn(4R-OH,5R-OH) = O=C([C@H](C[C@@H](O)[C@@H](O)N[*:3])N[*:1])[*:2]; Pro(3S-OH,4S-Me) = C[C@H]1CN[C@H](C(=O)O)[C@H]1O; X1 = CCCCCOc1ccc(-c2cc(-c3ccc(C(=O)*)cc3)no2)cc1; Gln(3R-OH) = NC(=O)C[C@@H](O)[C@H](N)C(=O)O; Hyp = O=C(O)[C@@H]1C[C@@H](O)CN1
testReadout: Kp at 2.5 h

# compound, assayResult
records = [
    ("CCCCCOc1ccc(-c2cc(-c3ccc(C(=O)N[C@H]4C[C@@H](O)[C@@H](O)NC(=O)[C@@H]5[C@@H](O)[C@@H](C)CN5C(=O)[C@H]([C@H](O)CC(N)=O)NC(=O)[C@H]([C@H](O)[C@@H](O)c5ccc(O)c(OS(=O)(=O)O)c5)NC(=O)[C@@H]5C[C@@H](O)CN5C(=O)[C@H]([C@@H](C)O)NC4=O)cc3)no2)cc1 [micafungin] (X1-[Orn(4R-OH,5R-OH)]T[Hyp][hTyr(3S-OH,4S-OH,3'-OSO3H)][Gln(3R-OH)][Pro(3S-OH,4S-Me)]; lactam 1-C)", 0.03),
]

###

testDetails: Concentration in arterial plasma of critically ill adults drawn simultaneously with CSF, HPLC-UV
Type: in vivo, human
setupConditions: human, plasma, intravenous; patient 2, cumulative dose 200 mg, treatment day 1, noncompartmental; read-out: AUC0–24 in plasma
Starred links: 1 amine or outer side, 2 acyl side, 3 side chain; linkers in the order of their positions; H or OH if unused. Positions of bridges follow the written chain, without caps; N, C: chain ends. Non-standard residues stand in square brackets, D forms with d. Residues, ends and D or L forms follow the SMILES beside them. *: point of attachment. pTerphenylCO(4''-OnC5H11) = CCCCCOc1ccc(-c2ccc(-c3ccc(C(=O)*)cc3)cc2)cc1; Orn(4R-OH,5R-OH) = O=C([C@H](C[C@@H](O)[C@@H](O)N[*:3])N[*:1])[*:2]; hTyr(3S-OH,4S-OH) = N[C@H](C(=O)O)[C@H](O)[C@@H](O)c1ccc(O)cc1; Pro(3S-OH,4S-Me) = C[C@H]1CN[C@H](C(=O)O)[C@H]1O; Hyp = O=C(O)[C@@H]1C[C@@H](O)CN1

# compound, AUC(0-t), ng·h/mL
measured = [
    ("CCCCCOc1ccc(-c2ccc(-c3ccc(C(=O)N[C@H]4C[C@@H](O)[C@@H](O)NC(=O)[C@@H]5[C@@H](O)[C@@H](C)CN5C(=O)[C@H]([C@@H](C)O)NC(=O)[C@H]([C@H](O)[C@@H](O)c5ccc(O)cc5)NC(=O)[C@@H]5C[C@@H](O)CN5C(=O)[C@H]([C@@H](C)O)NC4=O)cc3)cc2)cc1 [anidulafungin] ({pTerphenylCO(4''-OnC5H11)}-[Orn(4R-OH,5R-OH)]T[Hyp][hTyr(3S-OH,4S-OH)]T[Pro(3S-OH,4S-Me)]; lactam 1-C)", 29400),
]

###

testDetails: Concentration in arterial plasma of critically ill adults drawn simultaneously with CSF, HPLC-UV
Format: in vivo, human
setupConditions: human, plasma, intravenous; patient 2, cumulative dose 200 mg, treatment day 1; read-out: Tmax (time to Cmax) in plasma
Starred links: 1 amine or outer side, 2 acyl side, 3 side chain; linkers in the order of their positions; H or OH if unused. Positions of bridges follow the written chain, without caps; N, C: chain ends. Non-standard residues stand in square brackets, D forms with d. Residues, ends and D or L forms follow the SMILES beside them. *: point of attachment. pTerphenylCO(4''-OnC5H11) = CCCCCOc1ccc(-c2ccc(-c3ccc(C(=O)*)cc3)cc2)cc1; Orn(4R-OH,5R-OH) = O=C([C@H](C[C@@H](O)[C@@H](O)N[*:3])N[*:1])[*:2]; hTyr(3S-OH,4S-OH) = N[C@H](C(=O)O)[C@H](O)[C@@H](O)c1ccc(O)cc1; Pro(3S-OH,4S-Me) = C[C@H]1CN[C@H](C(=O)O)[C@H]1O; Hyp = O=C(O)[C@@H]1C[C@@H](O)CN1

# compound, Tmax, h
data = [
    ("CCCCCOc1ccc(-c2ccc(-c3ccc(C(=O)N[C@H]4C[C@@H](O)[C@@H](O)NC(=O)[C@@H]5[C@@H](O)[C@@H](C)CN5C(=O)[C@H]([C@@H](C)O)NC(=O)[C@H]([C@H](O)[C@@H](O)c5ccc(O)cc5)NC(=O)[C@@H]5C[C@@H](O)CN5C(=O)[C@H]([C@@H](C)O)NC4=O)cc3)cc2)cc1 [anidulafungin] ({pTerphenylCO(4''-OnC5H11)}-[Orn(4R-OH,5R-OH)]T[Hyp][hTyr(3S-OH,4S-OH)]T[Pro(3S-OH,4S-Me)]; lactam 1-C)", 1),
]
